Target: UniProt:Q96EB6
Sequence (Q96EB6 whole entry): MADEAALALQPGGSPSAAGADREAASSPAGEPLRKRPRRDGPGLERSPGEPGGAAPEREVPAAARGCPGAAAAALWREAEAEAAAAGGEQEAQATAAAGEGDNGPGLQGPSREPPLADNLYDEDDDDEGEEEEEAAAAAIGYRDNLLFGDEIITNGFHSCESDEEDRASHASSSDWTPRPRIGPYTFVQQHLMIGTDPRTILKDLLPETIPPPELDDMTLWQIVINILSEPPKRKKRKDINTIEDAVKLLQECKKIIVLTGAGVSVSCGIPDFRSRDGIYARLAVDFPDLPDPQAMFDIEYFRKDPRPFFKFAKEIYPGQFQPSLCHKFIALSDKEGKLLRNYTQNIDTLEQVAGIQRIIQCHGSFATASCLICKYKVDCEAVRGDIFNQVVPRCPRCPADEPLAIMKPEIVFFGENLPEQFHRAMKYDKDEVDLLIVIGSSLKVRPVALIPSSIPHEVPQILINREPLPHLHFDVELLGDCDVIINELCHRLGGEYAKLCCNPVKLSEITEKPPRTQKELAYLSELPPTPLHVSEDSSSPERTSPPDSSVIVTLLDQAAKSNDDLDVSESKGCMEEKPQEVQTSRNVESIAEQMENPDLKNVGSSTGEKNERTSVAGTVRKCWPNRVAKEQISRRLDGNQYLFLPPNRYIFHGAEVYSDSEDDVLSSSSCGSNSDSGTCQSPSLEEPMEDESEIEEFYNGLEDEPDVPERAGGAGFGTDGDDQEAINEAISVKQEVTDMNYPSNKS
Test: Trp mass spectrometry assay of SIRT1 activation
Assay type: biochemical
Settings: concentration giving 150% activation of SIRT1; Trp peptide substrate
PROPERTY_LABEL: Tryp AVG EC1.5 (μM)

[
  {
    "ENTRY_SMILES": "O=C(Nc1cnccn1)N1c2nc(-c3cccc(C(F)(F)F)c3)ccc2N2C[C@@H](O)[C@H]1C2",
    "TARGET_OF_ASSAY": "UniProt:Q96EB6",
    "RECORDED_RESULT": "A (A (EC1.5<1 μM))"
  },
  {
    "ENTRY_SMILES": "CS(=O)(=O)c1cccc(-c2ccc3c(n2)N(C(=O)Nc2cccc(-c4cnco4)c2)[C@H]2CCN3C2)c1",
    "TARGET_OF_ASSAY": "UniProt:Q96EB6",
    "RECORDED_RESULT": "A (A (EC1.5<1 μM))"
  }
]

// provenance: patent US9834558B2
